System: colo-rectal (DLD-1) cell line
Test Name: Growth of human tumor cells in culture, DLD-1 (Trypan blue exclusion)
Type: cell-based
Condition Label: Homo sapiens, DLD-1, 96 h, DLD-1 cells, 96 h continuous treatment, viable cells by Trypan blue exclusion
// reported GI50 for each item listed
Assay Metric: GI50 (µM)

[[record]]
smiles_code = "CCOc1cccc2cc(S(=O)(=O)Nc3ccc(OC)cc3)c(=O)oc12"
assay_metric = "GI50"
endpoint_value = 85

[[record]]
smiles_code = "COc1ccc(NS(=O)(=O)c2cc3cc(Br)ccc3oc2=O)cc1"
assay_metric = "GI50"
endpoint_value = 20

[[record]]
smiles_code = "O=c1oc2c(Cl)cccc2cc1S(=O)(=O)Nc1ccc(Br)cc1"
assay_metric = "GI50"
endpoint_value = 18

[[record]]
smiles_code = "CCOc1cccc2cc(S(=O)(=O)Nc3ccc(F)c(N)c3)c(=O)oc12"
assay_metric = "GI50"
endpoint_value = 80

[[record]]
smiles_code = "COc1ccc(NS(=O)(=O)c2cc3cc(Cl)ccc3oc2=O)cc1O"
assay_metric = "GI50"
endpoint_value = 82

[[record]]
smiles_code = "COc1ccc(NS(=O)(=O)c2cc3cc(Cl)ccc3oc2=O)cc1"
assay_metric = "GI50"
endpoint_value = 32

[[record]]
smiles_code = "O=c1oc2c(Br)cccc2cc1S(=O)(=O)Nc1ccc(Br)cc1"
assay_metric = "GI50"
endpoint_value = 14

[[record]]
smiles_code = "COc1ccc2oc(=O)c(S(=O)(=O)Nc3ccc(F)c(N)c3)cc2c1"
assay_metric = "GI50"
endpoint_value = 92

[[record]]
smiles_code = "COc1ccc2oc(=O)c(S(=O)(=O)Nc3ccc(Br)cc3)cc2c1"
assay_metric = "GI50"
endpoint_value = 38


# credit: patent US8143428B2
